- Measured target: human F508del-CFTR (Homo sapiens, UniProt P13569, DEL508-508)
- Sequence (P13569 with tags, fused parts or gaps DEL508-508): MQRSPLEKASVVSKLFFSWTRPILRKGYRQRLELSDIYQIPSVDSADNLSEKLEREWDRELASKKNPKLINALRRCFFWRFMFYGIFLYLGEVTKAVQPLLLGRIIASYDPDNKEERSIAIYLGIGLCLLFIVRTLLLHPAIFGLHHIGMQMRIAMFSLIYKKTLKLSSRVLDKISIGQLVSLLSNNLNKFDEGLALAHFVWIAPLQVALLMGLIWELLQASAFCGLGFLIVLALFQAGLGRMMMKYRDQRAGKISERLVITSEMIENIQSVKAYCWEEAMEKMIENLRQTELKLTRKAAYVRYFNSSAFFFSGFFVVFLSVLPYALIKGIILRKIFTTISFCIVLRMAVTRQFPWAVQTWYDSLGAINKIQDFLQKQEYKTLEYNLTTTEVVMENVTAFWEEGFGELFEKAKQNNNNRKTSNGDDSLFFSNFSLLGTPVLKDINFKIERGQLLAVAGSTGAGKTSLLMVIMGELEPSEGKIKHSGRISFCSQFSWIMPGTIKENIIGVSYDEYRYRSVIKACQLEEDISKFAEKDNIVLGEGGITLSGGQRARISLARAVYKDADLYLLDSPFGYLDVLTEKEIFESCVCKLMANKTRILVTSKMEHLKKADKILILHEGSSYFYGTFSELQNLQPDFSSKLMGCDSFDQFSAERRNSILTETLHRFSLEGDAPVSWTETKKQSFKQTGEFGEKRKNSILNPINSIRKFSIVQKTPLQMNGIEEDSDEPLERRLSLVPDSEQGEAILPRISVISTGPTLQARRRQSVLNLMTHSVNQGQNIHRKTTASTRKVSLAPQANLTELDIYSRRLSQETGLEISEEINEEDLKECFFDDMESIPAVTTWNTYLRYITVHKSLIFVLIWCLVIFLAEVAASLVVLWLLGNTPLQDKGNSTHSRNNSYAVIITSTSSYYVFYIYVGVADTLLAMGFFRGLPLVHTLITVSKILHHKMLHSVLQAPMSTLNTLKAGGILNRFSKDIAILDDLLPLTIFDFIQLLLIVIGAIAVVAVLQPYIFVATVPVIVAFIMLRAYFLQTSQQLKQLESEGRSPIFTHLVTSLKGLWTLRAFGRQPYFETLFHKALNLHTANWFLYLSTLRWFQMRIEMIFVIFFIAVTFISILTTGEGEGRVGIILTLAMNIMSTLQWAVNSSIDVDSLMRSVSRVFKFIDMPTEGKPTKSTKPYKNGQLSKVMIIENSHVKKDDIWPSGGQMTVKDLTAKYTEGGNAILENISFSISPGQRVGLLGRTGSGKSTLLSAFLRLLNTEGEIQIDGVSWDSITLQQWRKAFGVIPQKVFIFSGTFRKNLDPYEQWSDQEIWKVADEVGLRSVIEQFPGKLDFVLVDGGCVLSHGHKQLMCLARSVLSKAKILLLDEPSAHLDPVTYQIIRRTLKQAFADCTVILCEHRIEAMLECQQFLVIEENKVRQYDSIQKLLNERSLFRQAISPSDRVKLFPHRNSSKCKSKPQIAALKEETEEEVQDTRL
- Experiment notes: F508del-CFTR cell surface expression (corrector activity), DiscoveRx ß-galactosidase complementation chemiluminescence assay in recombinant U2OS cell line
- Condition set: U2OS, in relation to Emax of corrector lumacaftor (=100%); arithmetic mean values
Assignment: determine reported Emax for the given compounds.
Don't forget the unit after the number, please.

Exercise: For the compound COc1nccc2c1C(=O)N[C@H](C(=O)NCCc1cc(C)no1)CC(=O)N(C)[C@@H](CC(C)C)C(=O)N1CCCC[C@@H]1C(=O)N[C@H](Cc1ccccc1)CO2 , report Emax.
Solution: 327%

Exercise: For the compound CC(C)C[C@H]1C(=O)N2CCCC[C@@H]2C(=O)N[C@H](Cc2ccccc2)COc2ccc3ncccc3c2C(=O)N[C@H](C(=O)NCCc2noc(C3CC3)n2)CC(=O)N1C , report Emax.
Solution: 303%

Exercise: For the compound Cc1cc(CCNC(=O)[C@@H]2CC(=O)N(C)[C@@H](CC(C)C)C(=O)N3CCCC[C@@H]3C(=O)N[C@H](Cc3ccccc3)COc3ccc4c(c3C(=O)N2)OCC4)on1 , report Emax.
Solution: 211%

Exercise: For the compound COc1noc(CCNC(=O)[C@@H]2CC(=O)N(C)[C@@H](CC(C)C)C(=O)N3CCCC[C@@H]3C(=O)N[C@H](Cc3ccccc3)COc3cc(C)nc(OC)c3C(=O)N2)c1F , report Emax.
Solution: 393%

Exercise: For the compound COc1cccc(CCNC(=O)[C@@H]2CC(=O)N(C)[C@@H](CC(C)C)C(=O)N3CCN(c4ccccc4)C[C@@H]3C(=O)N[C@H](Cc3ccccc3)COc3cnc4ccccc4c3C(=O)N2)c1 , report Emax.
Solution: 327%

====

- Measured target: human F508del-CFTR (Homo sapiens, UniProt P13569, DEL508-508)
- Experiment notes: F508del-CFTR cell surface expression (corrector activity), DiscoveRx ß-galactosidase complementation chemiluminescence assay in recombinant U2OS cell line
- Condition set: U2OS, in relation to Emax of corrector lumacaftor (=100%); arithmetic mean values
Property: Emax (%)
Form entry: value (%) — number only.

Exercise: For the molecule Cc1cc(CCNC(=O)[C@@H]2CC(=O)N(C)[C@@H](CC(C)C)C(=O)N3CCCC[C@@H]3C(=O)N[C@H](Cc3ccccc3)COc3ccc4c(cnn4C)c3C(=O)N2)on1 [Example 429] , report Emax.
Solution: 224

Exercise: For the molecule COc1nc(C)cc2c1C(=O)N[C@H](C(=O)NCCc1cc(C(F)(F)F)no1)CC(=O)N(C)[C@@H](CC(C)C)C(=O)N1CCCC[C@@H]1C(=O)N[C@H](Cc1ccccc1)CO2 [Example 568] , report Emax.
Solution: 238

Exercise: For the molecule COc1cccc(CCNC(=O)[C@@H]2CC(=O)N(C)[C@@H](CC(C)C)C(=O)N3CCN(S(C)(=O)=O)C[C@@H]3C(=O)N[C@H](Cc3ccccc3)COc3ccc4ccccc4c3C(=O)N2)c1 [Example 731] , report Emax.
Solution: 248

Exercise: For the molecule COc1cccc(CCNC(=O)[C@@H]2CC(=O)N(C)[C@@H](CC(C)C)C(=O)N(C)C3(CC3)C(=O)N[C@H](Cc3ccccc3)COc3ncc4ccccc4c3C(=O)N2)c1 [Example 555] , report Emax.
Solution: 309

Exercise: For the molecule COc1cc(CCNC(=O)[C@@H]2CC(=O)N(C)[C@@H](CC(C)C)C(=O)N3CCC4(CC4)C[C@@H]3C(=O)N[C@H](Cc3ccccc3)COc3cc(C)nc(OC)c3C(=O)N2)on1 [Example 580] , report Emax.
Solution: 319

====

- Measured target: human F508del-CFTR (Homo sapiens, UniProt P13569, DEL508-508)
- Experiment notes: F508del-CFTR cell surface expression (corrector activity), DiscoveRx ß-galactosidase complementation chemiluminescence assay in recombinant U2OS cell line;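 further: U2OS cells co-expressing ProLink-tagged F508del-CFTR and a membrane-anchored enzyme acceptor, where more surface CFTR restores β-galactosidase activity measured by chemiluminescence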
- Condition set: EC50, F508del-CFTR cell surface expression, U2OS cells, 16h compound incubation; geomean values
The following ranges of EC50 define the classes used here: A (below 200 nM), B (200 nM to below 500 nM), C (500 nM or more)

Exercise: Classify this compound: CC(C)C[C@H]1C(=O)N2CCCC[C@H]2C(=O)N[C@H](Cc2ccccc2)COc2cnc3ccccc3c2C(=O)N[C@H](C(=O)NCCc2cccc(-n3nccn3)c2)CC(=O)N1C [Example 462]
Solution: B

Exercise: Classify this compound: COc1cccc(CCNC(=O)[C@@H]2CC(=O)N(C)[C@@H](CC(C)C)C(=O)N3CCN(S(=O)(=O)c4cncc(OC)c4)C[C@@H]3C(=O)N[C@H](Cc3ccccc3)COc3ccc4ccccc4c3C(=O)N2)c1 [Example 744]
Solution: A

Exercise: Classify this compound: CC(C)C[C@H]1C(=O)N2CCCC[C@@H]2C(=O)N[C@H](Cc2ccccc2)COc2ccc3c(cnn3C)c2C(=O)N[C@H](C(=O)NCCc2c(F)cccc2F)CC(=O)N1C [Example 490]
Solution: B

Exercise: Classify this compound: COc1cccc(CCNC(=O)[C@@H]2CC(=O)N(C)[C@@H](CC(C)C)C(=O)N(CCC3CCCCC3)CC(=O)N[C@H](Cc3ccccn3)COc3ccc4ccccc4c3C(=O)N2)c1 [Example 701]
Solution: A

Exercise: Classify this compound: CCOc1cccc(CCNC(=O)[C@@H]2CC(=O)N(C)[C@@H](CC(C)C)C(=O)N3CCN(C4CC4)C[C@@H]3C(=O)N[C@H](Cc3ccccc3)COc3cnc4ccccc4c3C(=O)N2)c1 [Example 400]
Solution: A

Exercise: Classify this compound: CC(C)C[C@H]1C(=O)N2CCCC[C@@H]2C(=O)N[C@H](Cc2ccccc2)COc2cnc3ccc(F)cc3c2C(=O)N[C@H](C(=O)NCCc2nc(C3CC3)no2)CC(=O)N1C [Example 641]
Solution: A

Exercise: Classify this compound: Cc1cc(CCNC(=O)[C@@H]2CC(=O)N(C)[C@@H](CC(C)C)C(=O)N(C)[C@H](C3CC3)C(=O)N[C@H](Cc3ccccc3)COc3ccc4ccccc4c3C(=O)N2)on1 [Example 508]
Solution: B

Exercise: Classify this compound: COc1nccc2c1C(=O)N[C@H](C(=O)NCCc1cc(C3CC3)no1)CC(=O)N(C)[C@@H](CC(C)C)C(=O)N1CCC(F)(F)C[C@@H]1C(=O)N[C@H](Cc1ccccc1)CO2 [Example 663]
Solution: C

Exercise: Classify this compound: COc1cccc(CCNC(=O)[C@@H]2CC(=O)N(C)[C@@H](CC(C)C)C(=O)N3CCCC[C@@H]3C(=O)N[C@H](Cc3ccccc3)COc3cccc(OC)c3C(=O)N2)c1 [Example 591]
Solution: B

Exercise: Classify this compound: COCCC(=O)N1CCN2C(=O)[C@H](CC(C)C)N(C)C(=O)C[C@@H](C(=O)NCCc3cccc(OC)c3)NC(=O)c3c(ccc4ccccc34)OC[C@@H](Cc3ccccc3)NC(=O)[C@H]2C1 [Example 752]
Solution: C

Exercise: Classify this compound: Cc1cc(CCNC(=O)[C@@H]2CC(=O)N(C)[C@@H](CC(C)C)C(=O)N(C)C3(CC(F)(F)C3)C(=O)N[C@H](Cc3ccccc3)COc3cnc4ccccc4c3C(=O)N2)on1 [Example 711]
Solution: C

Exercise: Classify this compound: COc1cc2c(cn1)OC[C@@H](Cc1ccccc1)NC(=O)[C@@H]1CCCCN1C(=O)[C@H](CC(C)C)N(C)C(=O)C[C@@H](C(=O)NCCc1cc(C3CC3)no1)NC2=O (mixture of isomers) [Example 652]
Solution: C

Exercise: Classify this compound: CC(C)C[C@H]1C(=O)N(C)CC(=O)N[C@H](Cc2ccccc2)COc2ccc3c(c2C(=O)N[C@H](C(=O)NCCc2ccc4c(c2)OCO4)CC(=O)N1C)OC(F)(F)O3 [Example 408]
Solution: B

Exercise: Classify this compound: CC(C)C[C@H]1C(=O)N2CCCC[C@@H]2C(=O)N[C@H](Cc2ccccc2)COc2cnc3ccc(F)cc3c2C(=O)N[C@H](C(=O)NCCc2cc(C3CC3)no2)CC(=O)N1C [Example 640]
Solution: A

Exercise: Classify this compound: Cc1cc(CCNC(=O)[C@@H]2CC(=O)N(C)[C@@H](CC3CCCC3)C(=O)N(C)C3(CC3)C(=O)N[C@H](Cc3ccccc3)COc3cnc4ccccc4c3C(=O)N2)on1 [Example 432]
Solution: B

Exercise: Classify this compound: Cc1nc2ccc3c(c2o1)C(=O)N[C@H](C(=O)NCCc1cc(C(C)C)no1)CC(=O)N(C)[C@@H](CC(C)C)C(=O)N(C)C1(CC1)C(=O)N[C@H](Cc1ccccc1)CO3 [Example 762]
Solution: C

Exercise: Classify this compound: COc1cc(CCNC(=O)[C@@H]2CC(=O)N(C)[C@@H](CC(C)C)C(=O)N3CCC4(CC4)C[C@H]3C(=O)N[C@H](Cc3ccccc3)COc3cc(C)nc(OC)c3C(=O)N2)on1 [Example 684]
Solution: C

Exercise: Classify this compound: COc1cccc(CCNC(=O)[C@@H]2CC(=O)N(C)[C@@H](CC(C)C)C(=O)N3CCN(S(=O)(=O)c4ccccc4)C[C@@H]3C(=O)N[C@H](Cc3ccccc3)COc3ccc4ccccc4c3C(=O)N2)c1 [Example 729]
Solution: A
